assay: Cytotoxicity against human cystinotic fibroblast at 50 uM after 72 hrs by alamar blue assay; type: cell-based
value.kind: Activity

[[record]]
molecule = "NCCS"
assay_value = "Non-toxic"

[[record]]
molecule = "COCCOCCOCCNC(=O)CCCC(=O)NCCSSCCNC(=O)CCCC(=O)NCCOCCOCCOC"
assay_value = "Non-toxic"

[[record]]
molecule = "COCCOCCOCCOCCNC(=O)CCC(=O)NCCSSCCNC(=O)CCC(=O)NCCOCCOCCOCCOC"
assay_value = "Non-toxic"

[[record]]
molecule = "COCCOCCOCCNC(=O)CCC(=O)NCCSSCCNC(=O)CCC(=O)NCCOCCOCCOC"
assay_value = "Non-toxic"

